Below: a set of entries, each annotated with reported Ki.
# target: hDA2
# procedure_text: Dopamine-2 receptor radioligand binding assay
# Set-up: species or system human
# study_conditions: [3H]spiperone
Numbered stars: 1 amine (or outer) side, 2 acyl side, 3 side chain; on linkers, the order of the positions; unused ones are H or OH. Bridge positions count the residues as written; N and C are the ends. Square brackets hold non-standard residues; d marks the D form. Peptide text beside a SMILES is read from it. * marks the point of attachment. X1 = CCCN1C[C@H](CSCC(=O)*)C[C@@H]2c3cccc4[nH]cc(c34)C[C@H]21; X2 = CN1C[C@H](CSCC(=O)*)C[C@@H]2c3cccc4[nH]cc(c34)C[C@H]21; Pipz(1-CH2CO,4-CH2CH2NH) = O=C(CN1CCN(CCN[*:1])CC1)[*:2]; Dopa = N[C@@H](Cc1ccc(O)c(O)c1)C(=O)O; Abu = CC[C@H](N)C(=O)O; AEEA = NCCOCCOCC(=O)O
measurement_kind: Ki

compound	measurement_kind	meas_value
CC[C@@H]1NC(=O)[C@H](CCCCN)NC(=O)[C@@H](Cc2c[nH]c3ccccc23)NC(=O)[C@H](Cc2ccc(O)cc2)NC(=O)[C@@H](NC(=O)[C@@H](Cc2ccc(O)cc2)NC(=O)[C@@H](Cc2ccc(O)cc2)NC(=O)[C@H](CCCCN)NC(=O)COCCOCCNC(=O)CSC[C@@H]2C[C@@H]3c4cccc5[nH]cc(c45)C[C@H]3N(C)C2)CSSC[C@@H](C(=O)N[C@H](C(N)=O)[C@@H](C)O)NC1=O [Example 34] ({X2-AEEA}-K[dY][dY]CY[dW]K[Abu]CT-NH2; disulfide 4-9)	Ki	114 nM
CCCN1C[C@H](CSCC(=O)NCCCC[C@@H](NC(=O)CSC[C@@H]2C[C@@H]3c4cccc5[nH]cc(c45)C[C@H]3N(CCC)C2)C(=O)N[C@H](Cc2ccccc2)C(=O)N[C@H]2CSSC[C@@H](C(=O)N[C@H](C(N)=O)[C@@H](C)O)NC(=O)[C@H]([C@@H](C)O)NC(=O)[C@H](CCCCN)NC(=O)[C@@H](Cc3c[nH]c4ccccc34)NC(=O)[C@H](Cc3ccc(O)c(I)c3)NC2=O)C[C@@H]2c3cccc4[nH]cc(c34)C[C@H]21 [Example 13]	Ki	15.2 nM
CCCN1C[C@H](CSCC(=O)NCCOCCOCC(=O)N[C@H](Cc2ccccc2)C(=O)N[C@H]2CSSC[C@@H](C(=O)N[C@H](C(N)=O)[C@@H](C)O)NC(=O)[C@H](CC)NC(=O)[C@H](CCCCN)NC(=O)[C@@H](Cc3c[nH]c4ccccc34)NC(=O)[C@H](Cc3ccc(O)cc3)NC2=O)C[C@@H]2c3cccc4[nH]cc(c34)C[C@H]21 [Example 8]	Ki	86 nM
CCCN1C[C@H](CSCC(=O)NCCCC[C@@H](NC(=O)CSC[C@@H]2C[C@@H]3c4cccc5[nH]cc(c45)C[C@H]3N(CCC)C2)C(=O)N[C@H]2CSSC[C@@H](C(=O)N[C@H](C(N)=O)[C@@H](C)O)NC(=O)[C@H](CC)NC(=O)[C@H](CCCCN)NC(=O)[C@@H](Cc3c[nH]c4ccccc34)NC(=O)[C@H](Cc3ccc(O)cc3)NC2=O)C[C@@H]2c3cccc4[nH]cc(c34)C[C@H]21 [Example 1]	Ki	15.8 nM
CCCN1C[C@H](CSCC(=O)NCCN2CCN(CC(=O)NCCN3CCN(CC(=O)N[C@H](Cc4ccccc4)C(=O)N[C@H]4CSSC[C@@H](C(=O)N[C@H](C(N)=O)[C@@H](C)O)NC(=O)[C@H](C(C)C)NC(=O)[C@H](CCCCN)NC(=O)[C@@H](Cc5c[nH]c6ccccc56)NC(=O)[C@H](Cc5ccc(O)c(I)c5)NC4=O)CC3)CC2)C[C@@H]2c3cccc4[nH]cc(c34)C[C@H]21 [Example 37]	Ki	126 nM
CCCN1C[C@H](CSCC(=O)NCCCC[C@H](NC(=O)CSC[C@@H]2C[C@@H]3c4cccc5[nH]cc(c45)C[C@H]3N(CCC)C2)C(=O)N[C@H](Cc2ccc(O)cc2)C(=O)N[C@H](Cc2ccc(O)cc2)C(=O)N[C@H]2CSSC[C@@H](C(=O)N[C@H](C(N)=O)[C@@H](C)O)NC(=O)[C@H](CC)NC(=O)[C@H](CCCCN)NC(=O)[C@@H](Cc3c[nH]c4ccccc34)NC(=O)[C@H](Cc3ccc(O)cc3)NC2=O)C[C@@H]2c3cccc4[nH]cc(c34)C[C@H]21 [Example 10] (X1-K(X1)[dY][dY]CY[dW]K[Abu]CT-NH2; disulfide 4-9)	Ki	8.22 nM
C=CCN1C[C@H](C(=O)N(CCCN(C)CC(=O)N[C@H](Cc2ccccc2)C(=O)N[C@H]2CSSC[C@@H](C(=O)N[C@H](C(N)=O)[C@@H](C)O)NC(=O)[C@H](CC)NC(=O)[C@H](CCCCN)NC(=O)[C@@H](Cc3c[nH]c4ccccc34)NC(=O)[C@H](Cc3ccc(O)cc3)NC2=O)C(=O)NCC)C[C@@H]2c3cccc4[nH]cc(c34)C[C@H]21 [Example 6]	Ki	65 nM
CC[C@@H]1NC(=O)[C@H](CCCCN)NC(=O)[C@@H](Cc2c[nH]c3ccccc23)NC(=O)[C@H](Cc2ccc(O)cc2)NC(=O)[C@@H](NC(=O)[C@@H](Cc2ccccc2)NC(=O)[C@H](CCCCNC(=O)[C@@H](N)Cc2ccc(O)c(O)c2)NC(=O)[C@@H](N)Cc2ccc(O)c(O)c2)CSSC[C@@H](C(=O)N[C@H](C(N)=O)[C@@H](C)O)NC1=O [Example 18] (H-[Dopa]K(Dopa)[dF]CY[dW]K[Abu]CT-NH2; disulfide 4-9)	Ki	3000 nM
CC[C@@H]1NC(=O)[C@H](CCCCN)NC(=O)[C@@H](Cc2c[nH]c3ccccc23)NC(=O)[C@H](Cc2ccc(O)cc2)NC(=O)[C@@H](NC(=O)[C@@H](Cc2ccc(O)cc2)NC(=O)[C@@H](Cc2ccc(O)cc2)NC(=O)[C@H](CCCCN)NC(=O)CN2CCN(CCNC(=O)CSC[C@@H]3C[C@@H]4c5cccc6[nH]cc(c56)C[C@H]4N(C)C3)CC2)CSSC[C@@H](C(=O)N[C@H](C(N)=O)[C@@H](C)O)NC1=O [Example 32] (X2-[Pipz(1-CH2CO,4-CH2CH2NH)]K[dY][dY]CY[dW]K[Abu]CT-NH2; disulfide 5-10)	Ki	136 nM
CC[C@@H]1NC(=O)[C@H](CCCCN)NC(=O)[C@@H](Cc2c[nH]c3ccccc23)NC(=O)[C@H](Cc2ccc(O)cc2)NC(=O)[C@@H](NC(=O)[C@@H](Cc2ccccc2)NC(=O)CSC[C@@H]2C[C@@H]3c4cccc5[nH]cc(c45)C[C@H]3N(C)C2)CSSC[C@@H](C(=O)N[C@H](C(N)=O)[C@@H](C)O)NC1=O [Example 30]	Ki	23.7 nM
